# System: iCell endothelial cells (human iPSC-derived ECs)
# MEASUREMENT PROTOCOL: High-content imaging cytotoxicity in iCell endothelial cells, 24 h
# Format: cell-based
# TEST CONTEXT: Homo sapiens, Endothelial cell, iPSC-EC, 24 hr, 0.01 µM, 0.00 µM control = 100.00, read-out: endo.mitoint.24hr
Counter-ions that a name gives are not always drawn.
EXPERIMENTAL READOUT: activity at 0.01 µM (%)
Kindly provide the numeric value in % only, without the unit symbol.

Q: Please look at this compound and report its activity at 0.01 µM: "O=C1C=CC(=O)C(c2ccc(Cl)cc2)=C1"
A: 114

Q: Please look at this compound and report its activity at 0.01 µM: "Oc1ccc(O)c(-c2ccc(Cl)cc2)c1"
A: 127

Q: Please look at this compound and report its activity at 0.01 µM: "Clc1cccc(-c2cccc(Cl)c2)c1"
A: 100

Q: Please look at this compound and report its activity at 0.01 µM: "COc1ccc(-c2cccc(Cl)c2)cc1Cl"
A: 94.9

Q: Please look at this compound and report its activity at 0.01 µM: O=S(=O)(O)Oc1ccc(-c2ccc(Cl)cc2)cc1 [4'-yl PCB 3 sulfate]
A: 114

###

# System: HUVECs
# MEASUREMENT PROTOCOL: High-content imaging cytotoxicity in HUVECs, 24 h
# Assay type: cell-based, human
# TEST CONTEXT: Homo sapiens, HUVEC, 24 h, HUVECs, 24 hrs, 0.01 µM; 0.00 µM = 100.00; read-out: huvec.tc.24hrs
Counter-ions that a name gives are not always drawn.
Consider the following molecules and their measured viability at 0.01 µM readings.
Kindly provide the numeric value in % only, without the unit symbol.

MOLECULE: COc1ccc(-c2cccc(Cl)c2)cc1Cl
REPORTED VALUE: 96.4

Q: Please look at this molecule and report its viability at 0.01 µM: "Oc1cc(Cl)c(-c2cc(Cl)ccc2Cl)cc1Cl"
A: 94.4

Q: Please look at this molecule and report its viability at 0.01 µM: "Clc1ccc(-c2ccccc2)cc1"
A: 83.5

Q: Please look at this molecule and report its viability at 0.01 µM: "Oc1cccc(-c2ccc(Cl)cc2)c1"
A: 89.2

Q: Please look at this molecule and report its viability at 0.01 µM: O=S(=O)(O)Oc1ccc(-c2cccc(Cl)c2)cc1Cl [4-yl PCB 11 sulfate]
A: 97.3

###

Consider the following compounds and their measured activity at 0.1 µM readings.
# Test system: iCell endothelial cells (human iPSC-derived ECs)
# MEASUREMENT PROTOCOL: Tube formation (tubulogenesis) assay in iCell endothelial cells, 18 h
# Format: cell-based
# TEST CONTEXT: Homo sapiens, Endothelial cell, iPSC-EC tube formation, 18 hr, 0.10 µM, 0.00 µM control = 100.00, read-out: endo.tlps.18hr
Counter-ions that a name gives are not always drawn.
Kindly provide the numeric value in % only, without the unit symbol.

COMPOUND: Oc1ccc(-c2cccc(Cl)c2)cc1Cl
activity at 0.1 µM (%): 99.3
//
COMPOUND: O=S(=O)(O)Oc1cc(-c2ccccc2)ccc1Cl [3-yl PCB 3 sulfate]
activity at 0.1 µM (%): 127
//
COMPOUND: O=S(=O)(O)Oc1cc(Cl)ccc1-c1ccccc1 [2-yl PCB 3 sulfate]
activity at 0.1 µM (%): 117
//
COMPOUND: O=S(=O)(O)Oc1cccc(-c2ccc(Cl)cc2)c1 [3'-yl PCB 3 sulfate]
activity at 0.1 µM (%): 126

Q: Please look at this compound and report its activity at 0.1 µM: "COc1ccc(-c2cccc(Cl)c2)cc1Cl"
A: 108

Q: Please look at this compound and report its activity at 0.1 µM: "O=C1C=CC(=O)C(c2ccc(Cl)cc2)=C1"
A: 114

Q: Please look at this compound and report its activity at 0.1 µM: "COc1ccc(-c2ccc(Cl)cc2)cc1"
A: 127
